Test system: HepG2-TUBA1B-RELA
run.description: phenotypically active (imaging signature differs from DMSO and reproducible) at any of 0.3-9 uM (binary (1 = active, 0 = inactive)); higher = active
condition.context: treatment time: 24 h
Counter-ions that a name gives are not always drawn.
Below: a set of entries, each annotated with reported phenotypically active.
endpoint.label: phenotypically active

• CC[C@@H]1C(=O)N(C)c2cnc(Nc3ccc(C(=O)NC4CCN(C)CC4)cc3OC)nc2N1C1CCCC1 = 1
• COc1ccc(CCN(C)CCCN2CCc3cc(OC)c(OC)cc3CC2=O)cc1OC = 0
• COc1ccc(C[C@H](N)C(=O)N[C@H]2[C@@H](O)[C@H](n3cnc4c(N(C)C)ncnc43)O[C@@H]2CO)cc1 [Puromycin dihydrochloride] = 1
• COc1ccccc1-c1c[nH]c2ncc(-c3cncc(C(=O)N(C)C)c3)cc12 = 1
• C/N=C(\NC#N)NCCSCc1nc[nH]c1C = 0
• CNC(=O)Nc1ccc(-c2nc(N3CC4CCC(C3)O4)c3cnn(C4CCC5(CC4)OCCO5)c3n2)cc1 = 1
• Clc1ccc(N/N=C(\c2ccccc2)c2ccccn2)nc1 = 1
• CCCCc1nc(Cl)c(CO)n1Cc1ccc(-c2ccccc2-c2nnn[nH]2)cc1 = 0
• Oc1cc(O)cc(/C=C/c2ccc(O)c(O)c2)c1 = 0
• O=C1NC(=O)C(c2ccccc2)(c2ccccc2)N1 = 0
• CC(C)NCCCn1c(Sc2cc3c(cc2I)OCO3)nc2c(N)ncnc21 = 1
• CCCCCCCN(CC)CCCC(O)c1ccc(NS(C)(=O)=O)cc1 (stereo unspecified) [ibutilide] = 0
• CN(CCOc1ccc(NS(C)(=O)=O)cc1)CCc1ccc(NS(C)(=O)=O)cc1 [dofetilide] = 0
• CN(C)CC(O)Cn1c2ccc(Br)cc2c2cc(Br)ccc21 (stereo unspecified) = 1
• OC(CCN1CCCCC1)(c1ccccc1)C1CCCCC1 (stereo unspecified) = 0
• Clc1ccc2nsnc2c1NC1=NCCN1 = 0
• O=C(NOCC1CC1)c1ccc(F)c(F)c1Nc1ccc(I)cc1Cl = 1
• CCOc1cc(CC(=O)N[C@@H](CC(C)C)c2ccccc2N2CCCCC2)ccc1C(=O)O [repaglinide] = 0
• Cc1noc(C)c1-c1ccc2c(c1)nc(CCc1ccc(OCCCN(C)C)cc1)n2CCN1CCOCC1 = 1
• COc1ccc([C@@H]2CC(=O)c3c(O)cc(O[C@@H]4O[C@H](CO[C@@H]5O[C@@H](C)[C@H](O)[C@@H](O)[C@H]5O)[C@@H](O)[C@H](O)[C@H]4O)cc3O2)cc1O = 0
• Cc1nc2c(O)cccc2c(=O)[nH]1 = 0
• O=C(O)CCNC(=O)c1ccc(/N=N/c2ccc(O)c(C(=O)O)c2)cc1 [balsalazide] = 0
• COc1cc(N2CCN(C)CC2)ccc1Nc1nccc(-c2cn(C)c3cnccc23)n1 = 1
• CN1CC[C@]23c4ccccc4N[C@H]1[C@]21CCN(C)[C@H]3Nc2ccccc21 = 0
• CCCCOc1cc(C(=O)NCCN(CC)CC)c2ccccc2n1 = 0
• Cc1ccc(Nc2nnc(-c3ccc([N+](=O)[O-])cc3)o2)cc1Cl = 0
• C[C@@H]1O[C@@H](O[C@H]2[C@H](Oc3cc(O)c4c(c3)O[C@H](c3ccc(O)cc3)CC4=O)O[C@H](CO)[C@@H](O)[C@@H]2O)[C@H](O)[C@H](O)[C@H]1O [Naringin hydrate] = 0
• CC(C)[N+](C)(CCOC(=O)C1c2ccccc2Oc2ccccc21)C(C)C = 0
• CCCNCC(O)COc1ccccc1C(=O)CCc1ccccc1 (stereo unspecified) = 1
• OC[C@H]1O[C@@H](n2cnc3c(NCc4ccco4)ncnc32)[C@H](O)[C@@H]1O [Kinetin riboside] = 1
• CS(=O)(=O)c1cccc(CNc2nc(Nc3ccc4c(c3)CCC(=O)N4)ncc2C(F)(F)F)c1 = 1
• CC(C)(C)NS(=O)(=O)c1cncc(-c2cc(F)c3nc(N)nn3c2)c1 = 0
• O=P(O)(O)C(O)(Cc1cccnc1)P(=O)(O)O [risedronate] = 0
• C[C@@H]1O[C@@H](O[C@H]2C(=O)c3c(O)cc(O)cc3O[C@@H]2c2ccc(O)c(O)c2)[C@H](O)[C@H](O)[C@H]1O = 0
• CNCC[C@H](Oc1cccc2ccccc12)c1cccs1 = 0
• O[C@H](CNC[C@H](O)[C@@H]1CCc2cc(F)ccc2O1)[C@@H]1CCc2cc(F)ccc2O1 = 1

* * *

System: A549-TP53BP1-CLTA
run.description: phenotypically active (imaging signature differs from DMSO and reproducible) at any of 0.3-9 uM (binary (1 = active, 0 = inactive)); higher = active
condition.context: treatment time: 24 h
Outcomes: active, inactive

• NS(=O)(=O)c1cc2c(cc1Cl)N=CNS2(=O)=O [chlorothiazide] = inactive
• COC(=O)c1sccc1S(=O)(=O)Nc1ccc(Nc2ccccc2)cc1OC = inactive
• COc1cc(O)cc(O)c1C(=O)/C=C/c1ccccc1 = active
• O=C(O)[C@H](O)[C@@H](O)[C@H](O[C@@H]1O[C@H](CO)[C@H](O)[C@H](O)[C@H]1O)[C@H](O)CO = inactive
• CCc1c(C(=O)Nc2cc(S(=O)(=O)N(CC)CC)ccc2O)[nH]c(C)c1C(C)=O = inactive
• O=C1NN(c2ccc(F)c(Cl)c2)C(=O)/C1=C\c1ccc([N+](=O)[O-])o1 = inactive
• CCCCOc1cc(C(=O)NCCN(CC)CC)c2ccccc2n1 = active
• Cc1ccc([N+](=O)[O-])cc1S(=O)(=O)N(C)C = inactive
• CN(C(=O)CCCOc1ccc2[nH]c(=O)ccc2c1)C1CCCCC1 [Cilostamide] = inactive
• COc1cc2nc3occc3c(OC)c2cc1OC = inactive
• Cc1cccc(C)c1OCC(=O)N[C@@H](Cc1ccccc1)[C@@H](O)C[C@H](Cc1ccccc1)NC(=O)[C@H](C(C)C)N1CCCNC1=O = inactive
• C[C@@H]1COCCN1c1cc(C2(S(C)(=O)=O)CC2)nc(-c2cccc3[nH]ccc23)n1 = active
• CN(C)CCOC(c1ccc(Cl)cc1)c1ccccn1 (centres undefined) = inactive
• CC1(C)CC(=O)C2=C(C1)NC(=S)NC2c1cccc(O)c1 (centres undefined) = active
• CN(C)CC(O)Cn1c2ccc(Br)cc2c2cc(Br)ccc21 (centres undefined) = inactive
• OC[C@H]1NC[C@H](O)[C@@H](O)[C@@H]1O = inactive
• CCC(CC)(NC(=O)C(C)C)C(=O)N[C@@H](CCCNC(=N)N)C(=O)NC1(C(=O)NC(c2ccc(F)cc2)c2ccc(F)cc2)CCCC1 = inactive
• Nc1nnc2[nH]c3ccccc3nc1-2 = inactive
• Cc1n[nH]c(=O)[nH]c1=O = inactive

* * *

Tested on: HepG2-TP53BP1-CLTA
run.description: phenotypically active (imaging signature differs from DMSO and reproducible) at any of 0.3-9 uM (binary (1 = active, 0 = inactive)); higher = active
condition.context: treatment time: 24 h
Where a name gives a salt, the structure may show the parent alone.
Possible outcomes: active, inactive

• COc1ccccc1OCC(O)COC(N)=O (configuration not stated) = inactive
• COc1ncc2cc(C(=O)Nc3cc(C(=O)NCc4cccc(Cl)c4)ccc3Cl)c(=O)[nH]c2n1 = inactive
• CCCNC(C)C(=O)Nc1c(C)csc1C(=O)OC (configuration not stated) = inactive
• O=C(O)COc1ccc(Br)cc1/C=C1\SC(=S)N(Cc2cccnc2)C1=O = inactive
• COc1ccc(C[C@H](C)NC[C@@H](O)c2ccc(O)c(NC=O)c2)cc1 = inactive
• CCN(CC)CCNC(=O)c1cc(Cl)c(N)cc1OC [metoclopramide] = inactive
• CN1c2ccccc2C(=O)N2CCc3c([nH]c4ccccc34)[C@H]21 = active
• N#C/C(=C(/N)Sc1ccc(N)cc1)c1ccccc1C(F)(F)F = active
• Cc1ccc(NC(=O)c2cccc(N(C)C)c2)cc1NC(=O)c1ccc(O)cc1 = inactive
• Cc1ccc(OCCSc2ncccn2)c(Br)c1 [ZLN 024 hydrochloride] = inactive
• C[C@H]1[C@H](C)CC[C@]2(C(=O)O[C@@H]3O[C@H](CO[C@@H]4O[C@H](CO)[C@@H](O[C@@H]5O[C@@H](C)[C@H](O)[C@@H](O)[C@H]5O)[C@H](O)[C@H]4O)[C@@H](O)[C@H](O)[C@H]3O)CC[C@]3(C)C(=CC[C@@H]4[C@@]5(C)C[C@@H](O)[C@H](O)[C@@](C)(CO)[C@@H]5CC[C@]43C)[C@H]12 [Asiaticoside] = inactive
• O=C1C=C(O)C(=O)c2ccccc21 [2-Hydroxy-[1,4]naphthoquinone] = inactive
• Cc1cc(C)c(C)c(S(=O)(=O)Nc2ccc(N3CC[C@H](C(=O)O)C3)c3ccccc23)c1C = inactive
• C[C@@H]1CN(Cc2ccc(F)cc2)[C@@H](C)CN1C(=O)c1cc2c(C(=O)C(=O)N(C)C)cn(C)c2cc1Cl [SCIO 469 hydrochloride] = active
• c1ccc(CC2=NCCN2)cc1 = inactive
• C#C[C@]1(O)CC[C@H]2[C@@H]3CCC4=Cc5oncc5C[C@]4(C)[C@H]3CC[C@@]21C = inactive
• N#Cc1c(C2CCNCC2)cc(-c2c(O)cccc2OCC2CC2)nc1N = active
